Origin of measurements: patent US20260159512A1

Measured pIC50 of individual entries
Biological target: BCAT2 (Homo sapiens, UniProt O15382)
Sequence (O15382 28-392): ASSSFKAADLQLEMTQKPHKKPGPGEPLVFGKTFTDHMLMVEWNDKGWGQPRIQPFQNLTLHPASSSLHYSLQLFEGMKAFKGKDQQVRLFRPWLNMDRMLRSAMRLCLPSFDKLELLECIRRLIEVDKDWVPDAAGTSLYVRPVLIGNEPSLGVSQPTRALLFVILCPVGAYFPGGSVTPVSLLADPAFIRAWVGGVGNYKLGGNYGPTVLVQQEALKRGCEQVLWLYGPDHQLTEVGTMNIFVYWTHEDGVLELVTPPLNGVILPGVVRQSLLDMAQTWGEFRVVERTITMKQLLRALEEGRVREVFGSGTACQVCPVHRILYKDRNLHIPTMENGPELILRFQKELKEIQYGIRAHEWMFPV
Experiment: BCAT2 in vitro enzyme inhibition assay (resazurin/diaphorase-coupled fluorescence)
Format: biochemical
Conditions: average where tested multiple times
pIC50: −log10 of the molar value.
measuredAttribute: pIC50

> print(dat)
                                   compound                          targetsystem  measuredattribute        result
1  O=C(N[C@@H]1CCC[C@H](n2c(-c3ccccc3F)nc3cnc(-c4ccn[nH]4)cc32)[C@H]1O)c1ncc(Cl)s1  BCAT2 (Homo sapiens, UniProt O15382)              pIC50  6.30 to 7.00
2  CC(C)(O)c1nc2cnc(-n3cncn3)cc2n1[C@@H]1CCC[C@H](NC(=O)c2ccc(Br)s2)C1  BCAT2 (Homo sapiens, UniProt O15382)              pIC50        < 6.00
3  Cc1coc(-c2cc3c(cn2)nc(-c2ccccn2)n3[C@@H]2CCC[C@H](NC(=O)c3ccc(Br)s3)C2)n1  BCAT2 (Homo sapiens, UniProt O15382)              pIC50        ≥ 7.00
4  CO[C@H]1C[C@H](NC(=O)c2ncc(Cl)s2)C[C@H](n2c(CC(C)C)nc3cnc(-c4nc[nH]n4)cc32)C1 (stereo in doubt)  BCAT2 (Homo sapiens, UniProt O15382)              pIC50        < 6.00
